Cited source for all entries: PubChem BioAssay

Listed here: items and their measured composite z-score.
- tested target: Neurogenic locus notch homolog protein 3 (Homo sapiens)
- test method notes: NOTCH3 binders on small-molecule microarray, primary screen, biochemical, 635/667 nm fluorescence (AID 1096)
- run parameters: NOTCH3 binding, 635 nm fluorescence, higher = more signal

Some compounds with recorded composite z-score:
compound: C=CCNC(=O)[C@@H]1[C@H]2C(=O)O[C@H](c3ccccc3)[C@H](c3ccccc3)N2[C@H](c2ccccc2OCCO)[C@@]12C(=O)N(C(=O)OCCOC)c1ccc(C#CCNC(N)=O)cc12
composite z-score: 1.12
--
compound: [N-]=[N+]=Nc1ccccc1C[C@]1(C(N)=O)N=C(c2ccc(OCCCO)cc2)O[C@H]1c1ccccc1
composite z-score: 0.444
--
compound: CC1(C)[C@@H]2CC(C(O)C3C=CC4C(=O)N(c5ccccc5)C(=O)C4N3Nc3ccccc3)=C[C@H]1C2 (some centres not stated)
composite z-score: 0.367
--
compound: COc1ccc(NN2C(C(O)c3ccc([N+](=O)[O-])cc3)C=CC3C(=O)N(C4CCCCC4)C(=O)C32)cc1 (configuration not stated)
composite z-score: 1.09

Please look up its composite z-score: CN1C2C=C(CCCO)C(C3C(=O)N(C(N)=O)C(=O)C32)C1c1ccc(CN2CCCC2)cc1 (configuration not stated)
-0.615

Please look up its composite z-score: "C=CCN1C(=O)[C@]2(O[C@H](CCO)[C@@H]([Si](C)(C)c3ccc(OC)cc3)[C@@H]2C)c2cc(N3C(=O)c4cccc5cccc3c45)ccc21"
1.07

Please look up its composite z-score: CC1CC/C=C\[C@H]2OC34C=CCN(Cn5nnc6ccccc65)C(=O)[C@H]3N(C(CO)C(C)C)C(=O)[C@@H]4C2C(=O)O1 (some centres not stated)
0.113
